experiment: Intact half-life during simulated gastric fluid (SGF) digestion; details: purified proteins, chip electrophoresis
Give Half-life for every item shown.
Could you give me the number in s? Just the number is fine.

## Input # get_value(readout='Half-life', item= SEQID-00485: nutritive polypeptide naturally produced in Chickpea, recombinantly expressed in E. coli (protein, listed as Cicer arietinum) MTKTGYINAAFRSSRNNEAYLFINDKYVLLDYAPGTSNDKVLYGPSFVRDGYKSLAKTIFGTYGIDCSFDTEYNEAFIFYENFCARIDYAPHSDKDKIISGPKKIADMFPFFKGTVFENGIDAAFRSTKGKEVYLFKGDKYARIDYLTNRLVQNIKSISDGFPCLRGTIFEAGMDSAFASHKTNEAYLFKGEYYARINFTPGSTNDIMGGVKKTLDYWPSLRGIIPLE )
## Output 30

## Input Record: SEQID-00502: protein of the 168 nutritive polypeptide library (protein, Glycine max, protein of the 168 nutritive polypeptide library) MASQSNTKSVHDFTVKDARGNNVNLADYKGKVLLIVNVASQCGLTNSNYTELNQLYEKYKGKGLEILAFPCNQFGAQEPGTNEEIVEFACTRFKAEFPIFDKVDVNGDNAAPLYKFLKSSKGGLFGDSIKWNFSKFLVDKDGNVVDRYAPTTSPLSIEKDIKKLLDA
## Output 36

## Input Follow-up entry: SEQID-00511: protein of the 168 nutritive polypeptide library (protein, Arthrospira platensis C1, protein of the 168 nutritive polypeptide library) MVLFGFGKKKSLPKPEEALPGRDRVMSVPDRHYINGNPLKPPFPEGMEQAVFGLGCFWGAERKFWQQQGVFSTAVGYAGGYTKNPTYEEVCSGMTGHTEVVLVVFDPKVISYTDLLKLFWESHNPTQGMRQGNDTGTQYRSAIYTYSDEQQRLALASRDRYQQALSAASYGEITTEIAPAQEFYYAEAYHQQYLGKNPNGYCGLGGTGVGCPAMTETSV
## Output 18

## Input Please give the result for SEQID-00598: nutritive polypeptide naturally produced in Flaxseed, recombinantly expressed in E. coli (protein, listed as Linum usitatissimum) MSRRCPGKNAWPELVGKSGNMAAATVERENRNVHAIVLKEGSAMTKDFRCDRVWVIVNDHGVVTSVPHIT too.
## Output 30

## Input Could you do the same for SEQID-00647: protein of the 168 nutritive polypeptide library (protein, Arthrospira platensis C1, protein of the 168 nutritive polypeptide library) MALSKIEEARQLNDDDLSEQILEIKKQLANLRLLKATGRLEKPHEIRHTRHRLSQLLTVERERQLPNQSPA , please?
## Output 12

## Input What do you have for SEQID-00610: protein of the 168 nutritive polypeptide library (protein, listed as Saccharomyces cerevisiae, source: /note="strain ATCC 204508 / S288c", protein of the 168 nutritive polypeptide library) MVLEATVLVIDNSEYSRNGDFPRTRFEAQIDSVEFIFQAKRNSNPENTVGLISGAGANPRVLSTFTAEFGKILAGLHDTQIEGKLHMATALQIAQLTLKHRQNKVQHQRIVAFVCSPISDSRDELIRLAKTLKKNNVAVDIINFGEIEQNTELLDEFIAAVNNPQEETSHLLTVTPGPRLLYENIASSPIILEEGSSGMGAFGGSGGDSDANGTFMDFGVDPSMDPELAMALRLSMEEEQQRQERLRQQQQQQDQPEQSEQPEQHQDK ?
## Output 24

## Input Next molecule up: SEQID-00606: protein of the 168 nutritive polypeptide library (protein, Glycine max, protein of the 168 nutritive polypeptide library) MASEGDHHHHHHHHQDHDHHHHDHDHHHHHDGEGETNSWVGKDGKVYHSHDGLAPHSHEPIYSPGYFTRRAPPLLNRNFNERAFTVGIGGPVGTGKTALMLALCELLRENYSLAAVTNDIFTKEDGEFLVKHKALPEERIRAVETGGCPHAAIREDISINLGPLEELSNLFKADILLCESGGDNLAANFSRELADYIIYIIDVSGGDKIPRKGGPGITQADLLVINKTDLAPAIGADLAVMQRDALRMRDGGPFVFAQVKHKIGVEEIGNLVLQAWEAATGNKRH
## Output 18
